Would you mind telling me the reported viability, T/C of each entry?
Test system: 217524-143-R1-J4-PDC spheroids with HUVEC/MSC, viability;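 further: spheroids exposed to agents for seven days before reading; 100% = DMSO vehicle control viability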
Test: Anticancer human tumor 217524-143-R1-J4-PDC patient-derived pancreatic carcinoma cell line growth inhibition [CLK]
Conditions: second compound 0.1 µM; first compound 1 µM; hits give low values
One number for each entry, in %.

COc1cccc2c1C(=O)c1c(O)c3c(c(O)c1C2=O)CC(O)(C(=O)CO)CC3OC1CC(N)C(O)C(C)O1 (stereo not given) + CNC(=O)c1ccc(Nc2nc(OC3CCCC3)c3c(-c4ccc5nc(C)oc5c4)c[nH]c3n2)c(OC)c1; 18.9
CCCS(=O)(=O)Nc1ccc(F)c(C(=O)c2c[nH]c3ncc(-c4ccc(Cl)cc4)cc23)c1F + CN1CCN(c2cc(C(=O)Nc3cc4cc(-c5cnn(C)c5)ccc4cn3)ccn2)CC1; 78.8
CC(Nc1ccc2c(c1)OCCn1cc(N3C(=O)OCC3C(F)F)nc1-2)C(N)=O (stereo not given) + CNC(=O)c1ccc(Nc2nc(OC3CCCC3)c3c(-c4ccc5nc(C)oc5c4)c[nH]c3n2)c(OC)c1; 7.98
C=CC(=O)N1CCN(c2nc(=O)n(-c3c(C)ccnc3C(C)C)c3nc(-c4c(O)cccc4F)c(F)cc23)C(C)C1 (stereo not given) + CN1CCN(c2cc(C(=O)Nc3cc4cc(-c5cnn(C)c5)ccc4cn3)ccn2)CC1; 64.9

Would you kindly look at the next entry?
Given the compound COC1C=CCC(C)C(C)S(=O)(=O)NC(=O)c2ccc3c(c2)N(CC2CCC21)CC1(CCCc2cc(Cl)ccc21)CO3 (stereo not given) + CNC(=O)c1ccc(Nc2nc(OC3CCCC3)c3c(-c4ccc5nc(C)oc5c4)c[nH]c3n2)c(OC)c1 and test system 217524-143-R1-J4-PDC spheroids with HUVEC/MSC, viability, the measured viability, T/C is 75.3

Reference source for all entries: PubChem BioAssay AID2060624
